# system.under.test: Adenosine receptor A1 (Homo sapiens)
# Sequence (P30542 whole entry): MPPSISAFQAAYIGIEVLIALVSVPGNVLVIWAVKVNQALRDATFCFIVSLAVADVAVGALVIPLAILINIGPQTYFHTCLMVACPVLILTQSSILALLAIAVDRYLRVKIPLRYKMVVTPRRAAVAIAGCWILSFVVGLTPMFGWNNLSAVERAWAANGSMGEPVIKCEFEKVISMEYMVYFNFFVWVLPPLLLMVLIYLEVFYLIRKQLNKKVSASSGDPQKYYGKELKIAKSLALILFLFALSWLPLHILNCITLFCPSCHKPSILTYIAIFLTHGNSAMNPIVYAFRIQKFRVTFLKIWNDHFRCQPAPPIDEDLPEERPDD
# experimental.details: Displacement of [3H]CPX from human recombinant adenosine A1 receptor expressed in CHO cells
pKi: −log10 of the molar value.
readout.kind: pKi

# count of solved cases: 3
| structure | pKi |
| --- | --- |
| CCCn1c(=O)c2[nH]c(-c3cnn(Cc4ccc(C)nc4)c3)nc2n(CC)c1=O | 5.82 |
| CCCn1c(=O)c2[nH]c(-c3cnn(Cc4ccccc4)c3)nc2n(C)c1=O | 6.24 |
| CCn1c(=O)c2[nH]c(-c3cnn(Cc4cccc(C(F)(F)F)c4)c3)nc2n(C)c1=O | 6.56 |

1: CCCn1c(=O)c2[nH]c(-c3cnn(Cc4cc(-c5ccc(Cl)cc5)on4)c3)nc2n(CC)c1=O
2: CC(C)Cn1c(=O)c2[nH]c(-c3cnn(Cc4cccc(C(F)(F)F)c4)c3)nc2n(C)c1=O
3: CCn1c(=O)n(CC(C)C)c(=O)c2[nH]c(-c3cnn(Cc4cccc(F)c4)c3)nc21
4: CCn1c(=O)c2[nH]c(-c3cnn(Cc4cccc(F)c4)c3)nc2n(C)c1=O
5: CCCn1c(=O)c2[nH]c(-c3cnn(Cc4ccc(C(F)(F)F)nc4)c3)nc2n(CC)c1=O
Order by pKi, ascending. Answer by writing out the labels in the requested order.
5, 3, 2, 4, 1
(5: 5.60, 3: 5.83, 2: 6.21, 4: 6.46, 1: 6.70)

---

# system.under.test: Adenosine receptor A3 (Homo sapiens)
# Sequence (P0DMS8 whole entry): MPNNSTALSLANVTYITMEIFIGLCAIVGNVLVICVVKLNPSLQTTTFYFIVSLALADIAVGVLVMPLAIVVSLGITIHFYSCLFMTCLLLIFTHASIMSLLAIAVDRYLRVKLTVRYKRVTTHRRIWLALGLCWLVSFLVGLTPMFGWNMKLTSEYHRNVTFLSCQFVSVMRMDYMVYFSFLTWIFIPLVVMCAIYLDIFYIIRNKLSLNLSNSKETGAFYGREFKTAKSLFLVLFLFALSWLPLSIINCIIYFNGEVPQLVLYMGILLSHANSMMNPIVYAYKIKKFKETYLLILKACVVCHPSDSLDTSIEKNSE
# experimental.details: Displacement of [125I]ABMECA from human recombinant adenosine A3 receptor expressed in CHO cells
readout.kind: Ki (µM)

# count of solved cases: 4
| structure | Ki, µM |
| --- | --- |
| Cn1c(=O)n(CC2CC2)c(=O)c2[nH]c(-c3cnn(Cc4cccc(F)c4)c3)nc21 | 0.035 |
| Cn1c(=O)n(CC2CC2)c(=O)c2[nH]c(-c3cnn(Cc4cccc(C(F)(F)F)c4)c3)nc21 | 0.16 |
| CCCn1c(=O)c2[nH]c(-c3cnn(Cc4cccc(C(F)(F)F)c4)c3)nc2n(C)c1=O | 0.408 |
| CCCn1c(=O)c2[nH]c(-c3cnn(Cc4ccc(C)nc4)c3)nc2n(CC)c1=O | 0.29 |

a: CCn1c(=O)c2[nH]c(-c3cnn(Cc4cccc(F)c4)c3)nc2n(C)c1=O
b: CCCn1c(=O)c2[nH]c(-c3cnn(Cc4ccc(C(F)(F)F)nc4)c3)nc2n(CC)c1=O
Consider entries a and b . Which has the numerically lower Ki? Select an item and report its label.
a
(a: 0.282 µM, b: 0.44 µM)
